Target: Meprin from R & D Systems
Assay: cell-based or functional assay
Endpoint: IC50 (nM), inhibition of meprin cleavage of the fluorescent substrate PEPDAB022
Remember to follow the number with its unit.

Entry SEQ ID NO: 64 (SEQ ID NO: 2 with R29K; R55K; C151S) (peptide) NPLNKYIRHYEGLSYNVDSLHQKHQRAKKAVSHEDQFLLLDFHAHGRQFNLRMKKDTSLFSDEFKVETSNKVLDYDTSHIYTGHIYGEEGSFSHGSVIDGRFEGFIKTRGGTFYIEPAERYIKDRILPFHSVIYHEDDINYPHKYGPQGGSADHSVFERMRKYQMTGVEEGARAHPEKHAASSGPELLRK has what IC50 (nM), inhibition of meprin cleavage of the fluorescent substrate PEPDAB022?
682 nM

Entry SEQ ID NO: 65 (R26A; R52A; C151S) (peptide) NPLNKYIRHYEGLSYNVDSLHQKHQAAKRAVSHEDQFLRLDFHAHGRHFNLAMKRDTSLFSDEFKVETSNKVLDYDTSHIYTGHIYGEEGSFSHGSVIDGRFEGFIQTRGGTFYVEPAERYIKDRTLPFHSVIYHEDDINYPHKYGPQGGSADHSVFERMRKYQMTGVEEVTQIPQAEHAANGPELLRK has what IC50 (nM), inhibition of meprin cleavage of the fluorescent substrate PEPDAB022?
289 nM

Entry SEQ ID NO: 62 (R29A; R55A; C151S; E177A) (peptide) NPLNKYIRHYEGLSYNVDSLHQKHQRAKAAVSHEDQFLRLDFHAHGRHFNLRMKADTSLFSDEFKVETSNKVLDYDTSHIYTGHIYGEEGSFSHGSVIDGRFEGFIQTRGGTFYVEPAERYIKDRTLPFHSVIYHEDDINYPHKYGPQGGSADHSVFERMRKYQMTGVEEVTQIPQAEHAANGPELLRK has what IC50 (nM), inhibition of meprin cleavage of the fluorescent substrate PEPDAB022?
817 nM

Entry SEQ ID NO: 34 (R29A; C151S; E177A) (peptide) NPLNKYIRHYEGLSYNVDSLHQKHQRAKAAVSHEDQFLRLDFHAHGRHFNLRMKRDTSLFSDEFKVETSNKVLDYDTSHIYTGHIYGEEGSFSHGSVIDGRFEGFIQTRGGTFYVEPAERYIKDRTLPFHSVIYHEDDINYPHKYGPQGGSADHSVFERMRKYQMTGVEEVTQIPQAEHAANGPELLRK has what IC50 (nM), inhibition of meprin cleavage of the fluorescent substrate PEPDAB022?
289 nM

Entry SEQ ID NO: 63 (R29K; R55K; C151S; E177A) (peptide) NPLNKYIRHYEGLSYNVDSLHQKHQRAKKAVSHEDQFLRLDFHAHGRHFNLRMKKDTSLFSDEFKVETSNKVLDYDTSHIYTGHIYGEEGSFSHGSVIDGRFEGFIQTRGGTFYVEPAERYIKDRTLPFHSVIYHEDDINYPHKYGPQGGSADHSVFERMRKYQMTGVEEVTQIPQAEHAANGPELLRK has what IC50 (nM), inhibition of meprin cleavage of the fluorescent substrate PEPDAB022?
542 nM

Hey, just so you know, these numbers are from patent US20250207119A1.
